target: PWI K837A+K838A (Homo sapiens, UniProt P49756 734-843, K837A;K838A); test: fluorescence polarization
Sequence (P49756 734-843 K837A/K838A): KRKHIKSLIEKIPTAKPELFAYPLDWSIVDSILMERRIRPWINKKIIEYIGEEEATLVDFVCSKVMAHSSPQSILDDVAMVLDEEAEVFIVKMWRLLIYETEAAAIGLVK
measure: pKd
Worth noting: pKd values are minus log10 of concentrations stated in mol/L.

stdin: // pKd lookup, key: AUCGGGCA (ssRNA) [ssRNA]
stdout: 4.80
